# Tested on: Mus musculus
# Method summary: Anticonvulsant activity using hexobarbital-induced (100 mg/kg dose was administered intraperitoneally) sleeping time assay evaluated in mice
# Type: functional
Each entry below lists one item and its recorded Hexobarb ST value.
Reply with just the number (in min).

> print(dat)
                  structure.as.smiles  target.or.system  readout.number
1  Cl.c1ccc(-c2cccc(OCCn3ccnc3)c2)cc1      Mus musculus             334
2  Cl.c1ccc(-c2ccccc2OCCCCn2ccnc2)cc1      Mus musculus           124.3
3                c1ccc(OCCn2ccnc2)cc1      Mus musculus           434.2

API: the following record is the query input.
Prompt: Looking for the measured Hexobarb ST of Cl.c1ccc(-c2ccccc2OCCCn2ccnc2)cc1 , can you help?
Response: 126.7

Reference for the values: ChEMBL document CHEMBL1123750
